Recorded max response values for a group of molecules are listed next.
Test system: CRL-7250
experiment: Cytotoxic Profiling of Annotated Libraries Using Quantitative High-Throughput Screening (AID 1296008); further: on the % scale 0 is the no-effect control and ±100 the full control effect; nearly all actives have a fitted effect of over 60% in size
measurement-conditions: Five cell lines viability, CellTiter-Glo ATP luminescence, 48-72 h; hits give low values
Inconclusive results are not listed.
Field format: number, assumed %, no unit text.

Consider the worked cases shown below.
1. C[C@@H](O)[C@H]1C(=O)N2C(C(=O)OCOC(=O)C(C)(C)C)=C(SC3CN(C4=NCCS4)C3)[C@H](C)[C@H]12 0.148
2. C[C@@H](N)c1ccc(C(=O)Nc2ccnc3[nH]ccc23)cc1 -24.2
3. CCN(CCO)CCCOc1ccc2c(Nc3cc(CC(=O)Nc4cccc(F)c4)[nH]n3)ncnc2c1 -19.9

Note: attention shifts to another entry.
Please look up its max response: COc1ccc(-c2ccc3ncc4c(c3c2)n(-c2ccc(N3CCNCC3)c(C(F)(F)F)c2)c(=O)n4C)cn1
-103
